# Test system: OVCAR-3
# assay_name: NCI tumour cell line growth inhibition, 48 h
Activity calls are given as the source filed them. No stated cut-off is given here; in the data, active = GI50 up to about 1.1 µM and inactive = higher.
Choose the fitting class; nothing outside active, inactive is accepted.

Solved cases (5 shown):
molecule="CCOC(C)OC1CC(n2cc(C)c(=O)[nH]c2=O)OC1CO (centres undefined)" assigned_class=inactive
molecule=N#C/C(C(=O)CCl)=C1\Nc2ccccc2O1 assigned_class=inactive
molecule="COc1cc(C(C)O)c(S(=O)(=O)CC(C)O)nn1 (centres undefined)" assigned_class=inactive
molecule=O=C(C[N+]1(c2ccccc2)CCOCC1)c1ccccc1 assigned_class=inactive
molecule="CO[C@H]1[C@@H](O)[C@@H](C)O[C@@H](O[C@H]2CC[C@@]3(C)[C@H](CC[C@@H]4[C@@H]3CC[C@]3(C)[C@@H](C5=CC(=O)OC5)[C@@H](OC(C)=O)C[C@]43O)C2)[C@@H]1O [NERITALOSIDE]" assigned_class=active

Give the logged outcome of this assay for the following molecule: CCOC(=O)CN(Cc1ccccc1)Cc1c(C(=O)c2ccccc2)c2ccccc2n1C(=O)c1ccccc1 inactive

Give the logged outcome of this assay for the following molecule: NC1=NC(=O)C2(NN1)c1ccccc1-c1ccccc12 inactive

Give the logged outcome of this assay for the following molecule: Nc1ccn(C2OC(COP(=O)(O)OCC3OC(n4cc(F)c(=O)[nH]c4=O)CC3O)C(O)C2O)c(=O)n1 (centres undefined) inactive

Give the logged outcome of this assay for the following molecule: Cc1[nH]c(=O)[nH]c(=O)c1C(=O)N(CCO)Cc1ccccc1 inactive
